Entry source: PubChem BioAssay

# systemName: Beta-2 adrenergic receptor (Homo sapiens)
# measurementDescription: agonist-induced loss of surface beta2AR – cell-based, FAP fluorogen, flow cytometry, validation set, pilot screen (AID 504459);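 note: agonist-driven loss of surface beta2AR via internalization measured by FAP dye flow cytometry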
# testContext: Am2.2-beta2AR cells, at 10 µM, active compounds read high
For each of the compounds below, state its response.
One number for each entry, in %.

>  <compound>
NC(N)=N/N=C/c1c(Cl)cccc1Cl

>  <systemName>
Beta-2 adrenergic receptor (Homo sapiens)

>  <unitLabel>
%

>  <response>
-0.34

$$$$
>  <compound>
COc1cc(C2C(C(C)=O)=C(O)C(=O)N2c2ccc(C)cc2)ccc1O (stereo not drawn)

>  <systemName>
Beta-2 adrenergic receptor (Homo sapiens)

>  <unitLabel>
%

>  <response>
-1.25

$$$$
>  <compound>
CCOC(=O)C1C2C=CC3(CN(c4ccc(Cl)c(F)c4)C(=O)C13)O2 (stereo not drawn)

>  <systemName>
Beta-2 adrenergic receptor (Homo sapiens)

>  <unitLabel>
%

>  <response>
1.75

$$$$

Each of the following entries comes with a recorded value; kindly state response for each.
1. COc1cc(OC)c2c(C)c(Cl)c(=O)oc2c1
2. O=C(O)c1ccc(N2C(=O)/C(=C\c3ccccc3)N=C2c2ccccc2)cc1
3. Cc1ncoc1C(=O)N1CCCC(C(=O)c2ccc(-c3ccccc3)c(F)c2)C1 (stereo not drawn)
4. CCOC(=O)C1CCCN(Cc2nc(Cc3cccc(F)c3)no2)C1 (stereo not drawn)
5. CC1(C)Cc2ccccc2-c2nc(-c3ccccc3)oc(=O)c21
6. O=C(NC1CC1)C1CCN(C2CCN(C(=O)Cc3ccc(F)cc3)CC2)CC1
7. O=C(Nc1ccc(N2CCOCC2)cc1)c1ccc(-c2ccccc2[N+](=O)[O-])o1

Result string:
-6.2
-17.4
-19.4
20.7
-10.1
-2.98
8.71

###

Exercise: state measured response for each of the compounds provided.
# measurementDescription: cytosolic pH regulators acting via V-ATPase – S. cerevisiae, pHLuorin, HTS validation (AID 504600);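 note: plate controls were DMSO for no effect and reference compound for full effect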
# testContext: V-ATPase proton transport, at 10 µM, active compounds read high
Active and inactive are the calls of the source. No stated cut-off is given here; in the data, active means response above about 15%; inactive means the rest.

>  <compound>
CCOC(=O)C1CCCN(Cc2nc(Cc3cccc(F)c3)no2)C1 (stereo unspecified)

>  <response>
-3.88% (inactive)

$$$$

Batch of 3 compounds: report response for each.
1. CC(C)C12CN3CC(C(C)C)(CN(C1)C31C(=O)Nc3ccccc31)C2=O (stereo unspecified)
2. CCCCOc1ccc(CC(=O)NO)cc1
3. COc1cc2c3c(c1)C(C)CC(C)(C)N3C(=O)C2=O (stereo unspecified)

Result string:
-0.51% (inactive)
1.03% (inactive)
1.61% (inactive)

For each listed entry, give its response.
1. Cn1c(=O)[nH]c(=O)c2c1nc(NCc1ccco1)n2CCCc1ccccc1
2. COc1ccc(C2=NOC(COc3ccc4c(C)cc(=O)oc4c3)C2)c(OC)c1 (stereo unspecified)

Result string:
["0.19% (inactive)", "1.1% (inactive)"]

###

# measurementDescription: TOR pathway reporter MEP2-GFP, retest of hits – S. cerevisiae, flow cytometry GFP, cherry picks, confirmation (AID 2272);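 note: ratio of well signal to plate DMSO mean so 100% equals DMSO level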
# testContext: S. cerevisiae MEP2-GFP strain, 3 h, at 10 µM, active compounds read high
outcomeMeasure: GFP response vs DMSO (%)
Give bare numbers, in %.

>  <molecule>
CS(=O)(=O)Nc1cccc(C(=O)CC2(O)C(=O)Nc3ccc(Br)cc32)c1 (stereo not given)

>  <unitLabel>
%

>  <resultValue>
99

$$$$
>  <molecule>
CN(C)c1ccc(/C=C/C(=O)c2cccc(Br)c2)cc1

>  <unitLabel>
%

>  <resultValue>
112

$$$$
>  <molecule>
CCCCN(CCCC)CCCOC(=O)c1ccc(N)cc1

>  <unitLabel>
%

>  <resultValue>
98.3

$$$$
>  <molecule>
COc1cccc2sc(Nc3nc(-c4ccccn4)cs3)nc12

>  <unitLabel>
%

>  <resultValue>
124

$$$$

Moving on to the next molecule.
Query string: Consider the molecule CC(=O)[C@@]1(O)CC[C@H]2[C@@H]3C[C@H](C)C4=CC(=O)CC[C@]4(C)[C@H]3CC[C@@]21C and give its measured GFP response vs DMSO.
Result string: 92
